Reference for the values: patent US7435837B2

Molecular target: human 5-HT2C receptor (Homo sapiens, UniProt P28335)
Sequence (P28335 33-458): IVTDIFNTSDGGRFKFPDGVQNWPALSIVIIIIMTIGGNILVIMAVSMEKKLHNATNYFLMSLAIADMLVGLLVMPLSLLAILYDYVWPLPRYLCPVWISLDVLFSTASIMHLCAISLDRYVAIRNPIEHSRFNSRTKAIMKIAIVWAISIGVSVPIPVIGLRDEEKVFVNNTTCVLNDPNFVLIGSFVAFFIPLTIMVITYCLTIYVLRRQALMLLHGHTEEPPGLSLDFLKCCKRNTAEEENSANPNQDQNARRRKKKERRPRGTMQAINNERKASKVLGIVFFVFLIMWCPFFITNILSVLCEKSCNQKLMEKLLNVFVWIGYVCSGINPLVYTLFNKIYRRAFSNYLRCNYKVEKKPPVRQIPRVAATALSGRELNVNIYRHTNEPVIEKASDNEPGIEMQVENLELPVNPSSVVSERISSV
Assay: 5-HT2C receptor-stimulated calcium mobilization (FLIPR) in CHO cells;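 also: Fluo-3-AM fluorescence read on FLIPR every 1 s, agonist added after 10 baseline reads, response taken as peak minus lowest raw fluorescence count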
Format: cell-based
Settings: calcium mobilization, CHO cells stably expressing human 5-HT2C; read-out: 5-HT2C Function EC50
Readout: pEC50
pEC50 is a log-scale quantity: -log10 of the concentration expressed in molar.

Prompt: Any idea what pEC50 was measured for COc1ccc(-c2cc(C(F)(F)F)cc3c2OC(CN)C3)c(OC)c1 (racemic) ?
Response: 7.15

Prompt: Any idea what pEC50 was measured for Cc1cccc(-c2cccc3c2OC(CN)C3)c1C (racemic) ?
Response: 7.19

Prompt: Any idea what pEC50 was measured for COc1cccc(-c2cc(F)cc3c2OC(CN)C3)c1OC (single isomer, unassigned; (+)) [Example 214] ?
Response: 7.10

Prompt: Any idea what pEC50 was measured for CNCC1Cc2cccc(-c3c(C)cccc3C)c2O1 (racemic) ?
Response: 7.14

Prompt: Any idea what pEC50 was measured for COc1ccc(-c2cc(F)cc3c2OC(CN)C3)c(OC)c1 (racemic) ?
Response: 7.10
